All figures here come from patent US6004994A.

target: COX-2 (Ovis aries)
pIC50: −log10 of the molar value.
# if value of pIC50 reaches 6, tag yes (1); if it stays below, tag no (0)

| molecule | target.or.test.system | group.label |
| --- | --- | --- |
| CCN1CC/C(=C(/c2ccc(Cl)cc2)c2ccc(S(C)(=O)=O)cc2)C1=O [32 Z isomer] | COX-2 (Ovis aries) | no (0) |
| CS(=O)(=O)c1ccc(/C(=C2\N=C(c3ccccc3)OC2=O)c2ccc(Cl)cc2)cc1 [77 E isomer] | COX-2 (Ovis aries) | no (0) |
| CS(=O)(=O)c1ccc(/C(=C2\CCSC2=O)c2ccc(Cl)cc2)cc1 [80 Z isomer] | COX-2 (Ovis aries) | yes (1) |
| CN1CC/C(=C(\c2ccc(S(N)(=O)=O)cc2)c2ccc(Cl)c(Cl)c2)C1=O [33 Z isomer] | COX-2 (Ovis aries) | yes (1) |
| CN1CC/C(=C(/c2ccc(Cl)cc2)c2ccc(S(C)(=O)=O)cc2)C1=O [28 Z isomer] | COX-2 (Ovis aries) | no (0) |
| CS(=O)(=O)c1ccc(C(=C2CCN(Cc3ccccc3)C2=O)c2ccc(Cl)c(Cl)c2)cc1 [61 Z isomer] | COX-2 (Ovis aries) | yes (1) |
| CS(=O)(=O)c1ccc(/C(=C2\SC(=S)NC2=O)c2ccc(Cl)cc2)cc1 [78 E isomer] | COX-2 (Ovis aries) | no (0) |

###

target: COX-2 (Ovis aries); construct: purified enzyme from ewe placenta; from tissue; host or cells: ewe placenta; experiment: Inhibition of COX-2 enzymatic activity (PGE2 produced determined by EIA); assay type: biochemical, ewe (purified enzyme from ewe placenta); conditions: 10^-5 M; ewe placenta COX-2, arachidonic acid 4 μM

| compound | inhibition at 10 µM |
| --- | --- |
| CN1CC/C(=C(/c2ccc(Cl)cc2)c2ccc(S(C)(=O)=O)cc2)C1=O [28 Z isomer] | 77% |
| CS(=O)(=O)c1ccc(/C(=C2\N=C(c3ccccc3)OC2=O)c2ccc(Cl)cc2)cc1 [77 E isomer] | 77% |
| CS(=O)(=O)c1ccc(C(=C2CCN(Cc3ccc(Br)cc3)C2=O)c2ccc(Cl)cc2)cc1 [65 Z isomer] | 83% |
| Cc1cccc(CN2CCC(=C(c3ccc(Cl)cc3)c3ccc(S(C)(=O)=O)cc3)C2=O)c1 [64 Z isomer] | 59% |
| CC(=O)OCCN1CC/C(=C(/c2ccc(Cl)cc2)c2ccc(S(C)(=O)=O)cc2)C1=O [30 Z isomer] | 56% |
| CS(=O)(=O)c1ccc(/C(=C2\SC(=S)NC2=O)c2ccc(Cl)cc2)cc1 [78 E isomer] | 72% |
| CS(=O)(=O)c1ccc(/C(=C2\CCN(C3CCCCC3)C2=O)c2ccc(Cl)cc2)cc1 [29 Z isomer] | 86% |
| CS(=O)(=O)c1ccc(C(=C2CCN(Cc3cccc(Cl)c3)C2=O)c2ccc(Cl)cc2)cc1 [62 Z isomer] | 91% |
| Cc1cc(/C(=C2/CCN(C)C2=O)c2ccc(S(C)(=O)=O)cc2)ccc1F [56 Z isomer] | 53% |
| CCN1CC/C(=C(/c2ccc(Cl)cc2)c2ccc(S(C)(=O)=O)cc2)C1=O [32 Z isomer] | 84% |

###

Molecular target: COX-2 (Ovis aries, UniProt P79208)
Construct: purified enzyme from ewe placenta; from tissue; host or cells: ewe placenta
Sequence (P79208 17-603): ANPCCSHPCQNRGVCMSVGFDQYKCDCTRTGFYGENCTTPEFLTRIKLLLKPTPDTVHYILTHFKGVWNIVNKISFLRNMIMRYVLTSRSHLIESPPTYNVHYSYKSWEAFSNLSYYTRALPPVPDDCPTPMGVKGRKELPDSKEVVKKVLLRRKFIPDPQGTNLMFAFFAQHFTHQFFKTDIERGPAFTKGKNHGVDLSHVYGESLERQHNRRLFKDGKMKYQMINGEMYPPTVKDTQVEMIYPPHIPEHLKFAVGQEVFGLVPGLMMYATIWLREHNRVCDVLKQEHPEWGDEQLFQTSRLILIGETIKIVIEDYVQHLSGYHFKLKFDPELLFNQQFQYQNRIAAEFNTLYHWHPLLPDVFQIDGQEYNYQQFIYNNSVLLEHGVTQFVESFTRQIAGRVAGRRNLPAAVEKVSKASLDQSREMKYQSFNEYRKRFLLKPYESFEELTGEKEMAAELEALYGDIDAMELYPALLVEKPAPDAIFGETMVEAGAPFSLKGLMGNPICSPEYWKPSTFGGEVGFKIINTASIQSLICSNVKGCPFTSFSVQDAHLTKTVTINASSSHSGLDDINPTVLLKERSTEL
Experiment: Inhibition of COX-2 enzymatic activity (PGE2 produced determined by EIA)
Format: biochemical, ewe (purified enzyme from ewe placenta)
Settings: 10^-5 M; ewe placenta COX-2, arachidonic acid 4 μM

| molecule | inhibition at 10 µM |
| --- | --- |
| CS(=O)(=O)c1ccc(/C(=C2\CCN(Cc3ccccc3)C2=O)c2ccc(Cl)cc2)cc1 [31 Z isomer] | 88% |
| CS(=O)(=O)c1ccc(C(=C2CCN(Cc3ccccc3Cl)C2=O)c2ccc(Cl)cc2)cc1 [63 Z isomer] | 88% |
| COc1ccc(/C(=C2/CCN(C)C2=O)c2ccc(S(C)(=O)=O)cc2)cc1 [55 E isomer] | 44% |
| CN1CC/C(=C(\c2ccc(S(C)(=O)=O)cc2)c2ccc(Cl)c(Cl)c2)C1=O [53 Z isomer] | 92% |
